This collection of values is drawn from paper PMC5540273.

tested on: EPHA5; settings: concentration: 1 μM, replicates: in singlicate; n = 1
Result type: %Inh (%)
Give bare numbers, in %.

Here is how some compounds turned out for %Inh.
Compound: O=C(Nc1n[nH]c2cc(-c3ccsc3)ccc12)C1CC1
Target entity: EPHA5
Unit info: %
%Inh: 3
//
Compound: COc1nccc(-c2c(-c3ccc(F)cc3)ncn2CCCN2CCOCC2)n1
Target entity: EPHA5
Unit info: %
%Inh: 0
//
Compound: CNCc1ccc2nc(NC(=O)c3ccc(C(C)(C)C)cc3)cn2c1
Target entity: EPHA5
Unit info: %
%Inh: 3
//
Compound: CS(=O)(=O)CCNCc1nc(-c2ccc3ncnc(Nc4ccc5c(cnn5Cc5ccccc5)c4)c3c2)cs1.Cl.Cl
Target entity: EPHA5
Unit info: %
%Inh: 8
//
Compound: CC(=O)c1c(C)c2cnc(Nc3ccc(N4CCNCC4)cn3)nc2n(C2CCCC2)c1=O
Target entity: EPHA5;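 note: KINOMEscan kinase panel screen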
Unit info: %
%Inh: 0

// input: 3 compounds below; output: %Inh for each
1. CC(C)c1cc(-c2ccc3c(N)n[nH]c3c2)nc(N)n1
2. O=C(Nc1n[nH]c2nc(-c3cccs3)c(Br)cc12)C1CCCC1
3. COc1ccc(-c2coc3ccc(-c4nnc(C)o4)cc23)cc1

## Result
1. 0
2. 13
3. 0

Okay, here is my list. What is %Inh for each of these?
1. Fc1ccc(-c2nn3cccc(F)c3c2-c2ccncc2)cc1
2. CC[C@@H]1CO[C@H](C(=O)Nc2ccccc2)CN1c1cc(-c2ccc3c(N)n[nH]c3c2)nc(NC)n1
3. COC(=O)C(Cc1ccccc1)NC(=O)NC1CCN(c2ccnc(Nc3ccc(F)cc3)n2)C1 (stereo not drawn)
4. Cc1cccc2c(-c3ccncn3)c(-c3ccc(F)cc3)nn12
5. CNc1nc(-c2ccc3c(N)n[nH]c3c2)cc(N2C[C@@H](C(=O)Nc3ccccc3)CC[C@H]2C)n1
6. Cn1cncc1C(=O)NC1CCN(c2ccnc(Nc3ccc(F)cc3)n2)C1 (stereo not drawn)
7. CC(C)c1ccc(O)cc1Nc1ccnc2ccc(C(F)(F)F)cc12
8. COC(=O)c1cccc(NC(=O)NC2CCN(c3ccnc(Nc4ccc(OC)cc4)n3)C2)c1 (stereo not drawn)

## Result
13
0
0
0
0
0
0
0

Provide the reported %Inh of each entry below, same order.
1. COc1ccc(CSc2nnc(-c3ccc4nccn4c3)o2)cc1C(F)(F)F
2. O=C1NC(=O)C(c2ccc(Cl)cc2)=C1Nc1cccc(Cl)c1

## Result
10
1
